For each record, write down the corresponding log10 of IC50.
# ASSAY_SYSTEM: CDK2 (Homo sapiens, UniProt P24941)
# Construct: purchased Carna Biosciences, Inc
# ASSAY_NAME: CDK2 kinase activity inhibition (ADP-Glo)
# Type: biochemical
# TEST_PARAMETERS: 10 μM ATP, 2 h at room temperature
On a log10 scale: recorded IC50, unit nM.

COc1ccnc(Nc2ccc(C)c(C(=O)N3CC(F)(F)CC[C@@H]3CNC(C)=O)n2)c1 = 3.93
Cc1ccc(Nc2cc(OC(F)(F)F)ccn2)nc1C(=O)N1CC(F)(F)CC[C@@H]1CNS(C)(=O)=O = 2.48
CCNC(=O)C1CCC(F)(F)CN1C(=O)c1nc(Nc2cc(OC(F)(F)F)ccn2)ccc1C (centres unmarked) = 3.51
CC(=O)NC[C@H]1CCC(F)(F)CN1C(=O)c1nc(Nc2cnccn2)ccc1C = 3.56
CC(=O)NC[C@H]1CCC(F)(F)CN1C(=O)c1nc(Nc2cc(Cl)ccn2)ccc1C = 2.61
CC(=O)NC[C@H]1CCC(F)(F)CN1C(=O)c1nc(Nc2cc(C(F)F)ccn2)ccc1C = 2.16
CC(=O)N[C@@H]1C[C@H](Nc2nc(Nc3cc(OC(F)(F)F)ccn3)ccc2C)CC(F)(F)C1 = 2.90
Cc1ccc(Nc2cc(OC(F)(F)F)ccn2)nc1C(=O)N1CCCC[C@@H]1CNC(=O)OC(C)(C)C = 3.97

Batch lookup, log10 of IC50 per entry.
1. CC(=O)NC[C@H]1CCC(F)(F)CN1C(=O)c1nc(Nc2cc(-c3cnn4c3CCC4)c(F)cn2)ccc1C
2. Cc1ccc(Nc2cc(C#N)ccn2)nc1C(=O)N1CC(F)(F)CC[C@@H]1CNC(=O)OC(C)(C)C
3. CC(=O)N[C@@H]1CCC[C@H](C(=O)Nc2cc(-c3cnn4c3CC(C)(C)C4)c(Cl)cn2)C1 [AZD4573, reference compound]

Result ::
3.20
2.26
1.27

Batch lookup, log10 of IC50 per entry.
1. CC(=O)NC[C@H]1CCC(F)(F)CN1C(=O)c1nc(Nc2cc(C#N)ccn2)ccc1C
2. COC(=O)c1ccnc(Nc2ccc(C)c(C(=O)N3CC(F)(F)CC[C@@H]3CNC(C)=O)n2)c1
3. CC(=O)N(C)C[C@H]1CCC(F)(F)CN1C(=O)c1nc(Nc2cc(OC(F)(F)F)ccn2)ccc1C

Result ::
1. 1.56
2. 2.97
3. 2.82

----------
# ASSAY_SYSTEM: CDK1 (Homo sapiens, UniProt P06493)
# Construct: purchased Carna Biosciences, Inc
# Sequence (P06493 whole entry): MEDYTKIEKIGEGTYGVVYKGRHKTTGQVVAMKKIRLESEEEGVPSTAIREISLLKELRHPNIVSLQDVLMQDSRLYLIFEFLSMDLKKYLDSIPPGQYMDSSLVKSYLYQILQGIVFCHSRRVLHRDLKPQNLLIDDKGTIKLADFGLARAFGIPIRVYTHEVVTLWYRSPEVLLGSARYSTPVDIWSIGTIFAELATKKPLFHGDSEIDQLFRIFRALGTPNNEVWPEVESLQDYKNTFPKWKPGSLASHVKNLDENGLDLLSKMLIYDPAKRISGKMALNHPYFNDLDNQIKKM
# Sequence (P14635 whole entry partner): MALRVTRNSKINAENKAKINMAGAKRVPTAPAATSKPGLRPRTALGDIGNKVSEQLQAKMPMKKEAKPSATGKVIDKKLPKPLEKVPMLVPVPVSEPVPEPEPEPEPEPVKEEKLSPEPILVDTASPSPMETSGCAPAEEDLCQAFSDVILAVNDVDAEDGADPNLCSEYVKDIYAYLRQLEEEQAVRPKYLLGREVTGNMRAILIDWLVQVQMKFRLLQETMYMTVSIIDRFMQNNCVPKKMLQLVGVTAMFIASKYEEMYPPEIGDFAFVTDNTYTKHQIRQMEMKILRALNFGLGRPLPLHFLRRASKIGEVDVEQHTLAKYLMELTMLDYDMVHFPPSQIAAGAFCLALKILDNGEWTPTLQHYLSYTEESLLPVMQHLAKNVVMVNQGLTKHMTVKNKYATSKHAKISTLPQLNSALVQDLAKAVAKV
# ASSAY_NAME: CDK1 kinase activity inhibition (ADP-Glo)
# Assay type: biochemical
# TEST_PARAMETERS: 50 μM ATP, 2 h at room temperature
For each record, write down the corresponding IC50.

COc1ccnc(Nc2ccc(C)c(C(=O)N3CC(F)(F)CC[C@@H]3CNC(C)=O)n2)c1 = > 10000 nM

Batch lookup, IC50 per entry.
1. CC(=O)NC[C@H]1CCC(F)(F)CN1C(=O)c1nc(Nc2cc(C(C)(C)C)ccn2)ccc1C
2. CC(=O)NC[C@H]1CCC(F)(F)CN1C(=O)c1nc(Nc2ccccn2)ccc1C

Result ::
["> 10000 nM", "> 10000 nM"]

----------
# ASSAY_SYSTEM: CDK2 (Homo sapiens)
# Construct: purchased Carna Biosciences, Inc
# ASSAY_NAME: CDK2 kinase activity inhibition (ADP-Glo)
# Type: biochemical
# TEST_PARAMETERS: 10 μM ATP, 2 h at room temperature
VALUE_TYPE: log10 of IC50 (log10 of the value in nM)
On a log10 scale: recorded IC50, unit nM.

Cc1ccc(Nc2cc(OC(F)(F)F)ccn2)nc1C(=O)N1CC(F)(F)CC[C@@H]1CNC(=O)C1CC1 [Compound 51] = 3.10
CC(=O)NC[C@H]1CCC(F)(F)CN1C(=O)c1nc(Nc2cc(OC(F)(F)F)ccn2)ccc1C [Compound 5] = 2.34
CC(=O)NC[C@H]1CCC(F)(F)CN1C(=O)c1nc(Nc2cc(C)ccn2)ccc1C [Compound 8] = 3.41
CC(=O)NC[C@H]1CCC(F)(F)CN1C(=O)c1nc(Nc2cc(OC(F)(F)F)ccn2)ncc1C [Compound 76] = 3.76
Cc1ccc(Nc2cc(OC(F)(F)F)ccn2)nc1C(=O)N1CC(F)(F)CC[C@@H]1CN [Compound 34] = 1.48
CC(=O)NC[C@H]1CCCCN1C(=O)c1nc(Nc2cc(OC(F)(F)F)ccn2)ccc1C [Compound 45] = 2.95
CC(C)(C)OC(=O)NC[C@H]1CCC(F)(F)CN1C(=O)c1nc(Nc2cc(OC(F)(F)F)ccn2)ccc1F [Compound 66] = 3.10
Cc1ccc(Nc2cc(OC(F)(F)F)ccn2)nc1C(=O)N1CC(F)(F)CC[C@@H]1CNC(=O)OC(C)(C)C [Compound 33] = 3.15

Then there is this compound:
Query :: Which log10 of IC50 value belongs to CC(=O)NC[C@H]1CCC(F)(F)CN1C(=O)c1nc(Nc2cc([N+](=O)[O-])ccn2)ccc1C [Compound 19] ?
Result :: 1.69
